System: P. vulgatus RND KO
assay: growth AUC normalised to DMSO control (median) (fraction of control); higher = less growth inhibition, active = hit call of the paper
settings: 20 µM
Structures can show the parent of a compound that is named as a salt.
The following compounds are shown together with reported growth AUC normalised to DMSO control values.
Please state the value as a number alone, without comment.

A selection of reference data follows.
compound: C=C(CC)C(=O)c1ccc(OCC(=O)O)c(Cl)c1Cl
growth AUC normalised to DMSO control: 0.994
--
compound: Cc1c(N)c(=O)n(-c2ccccc2)n1C
growth AUC normalised to DMSO control: 1.04
--
compound: CN1CCN(CCCN2c3ccccc3Sc3ccc(C(F)(F)F)cc32)CC1 [Trifluoperazine dihydrochloride]
growth AUC normalised to DMSO control: 0.974
--
compound: CNCc1cc(-c2ccccc2F)n(S(=O)(=O)c2cccnc2)c1
growth AUC normalised to DMSO control: 1.02
--
compound: CC(C)(C)c1ccc(C(O)CCCN2CCC(C(O)(c3ccccc3)c3ccccc3)CC2)cc1 (centres undefined)
growth AUC normalised to DMSO control: 0.907

The compound identified as "S=c1[nH]cnc2nc[nH]c12" registered its growth AUC normalised to DMSO control at 1.01

Entry "CCOC(=O)n1ccn(C)c1=S" ; growth AUC normalised to DMSO control = 0.993

Recorded growth AUC normalised to DMSO control (compound "O=[N+]([O-])c1ccc(O)c2ncccc12" ): 0.0544

growth AUC normalised to DMSO control in this record for CCC(C)(C)c1ccc(CC(C)CN2C[C@@H](C)O[C@@H](C)C2)cc1 (some centres undefined) [Amorolfine hydrochloride] : 1.01

----------
Test system: P. vulgatus WT
assay: growth AUC normalised to DMSO control (median) (fraction of control); higher = less growth inhibition, active = hit call of the paper
settings: 20 µM
Where a name gives a salt, the structure may show the parent alone.
Select the matching outcome among active, inactive

molecule: CN(C)C/C=C(/c1ccc(Br)cc1)c1cccnc1 [Zimelidine dihydrochloride monohydrate]
label-class: inactive
--
molecule: CN(C)CCOC(c1ccc(Cl)cc1)c1ccccn1 (configuration not stated) [Carbinoxamine maleate salt]
label-class: inactive
--
molecule: CO/N=C(\C(=O)N[C@@H]1C(=O)N2C(C(=O)[O-])=C(C[n+]3ccn4ncccc43)CS[C@H]12)c1nsc(N)n1 [Cefozopran hydrochloride]
label-class: inactive
--
molecule: C[C@@H](O[C@H]1OCCN(Cc2n[nH]c(=O)[nH]2)[C@H]1c1ccc(F)cc1)c1cc(C(F)(F)F)cc(C(F)(F)F)c1 [Aprepitant]
label-class: active
--
molecule: NS(=O)(=O)c1cc2c(cc1Cl)N=C(CSCc1ccccc1)NS2(=O)=O [Benzthiazide]
label-class: inactive

Problem: Would you mind telling me which call this test gave C/C(O)=C(\C#N)C(=O)Nc1ccc(C(F)(F)F)cc1 [Teriflunomide] ?
Result: inactive

Problem: Assay outcome for "Nc1c(CC(=O)O)cccc1C(=O)c1ccc(Br)cc1" : what was it?
Result: inactive

Problem: Please indicate how the test categorized COCCCOc1ccnc(C[S+]([O-])c2nc3ccccc3[nH]2)c1C (configuration not stated) [Rabeprazole sodium salt] .
Result: inactive

----------
Test system: Yersinia pseudotuberculosis
assay: growth AUC normalised to DMSO control (fraction of control); higher = less growth inhibition, active = hit call of the paper
settings: 20 µM
Counter-ions that a name gives are not always drawn.
reported-metric: growth AUC normalised to DMSO control
No unit in the answer, please; the number alone is enough.

compound: CSc1ccc2c(c1)N(CCC1CCCCN1C)c1ccccc1S2 (centres undefined) [Thioridazine hydrochloride]
growth AUC normalised to DMSO control: 0.975
--
compound: CCN(CC)CCOCCOC(=O)C1(c2ccccc2)CCCC1 [Carbetapentane citrate]
growth AUC normalised to DMSO control: 1
--
compound: COC(=O)Nc1nc2cc(C(=O)c3ccccc3)ccc2[nH]1
growth AUC normalised to DMSO control: 0.996
--
compound: CCCCN(CCCC)CCC(O)c1cc2c(Cl)cc(Cl)cc2c2cc(C(F)(F)F)ccc12 (centres undefined) [Halofantrine hydrochloride]
growth AUC normalised to DMSO control: 1.03

Kindly note the recorded growth AUC normalised to DMSO control for CC(C)(C)c1ccc(C(O)CCCN2CCC(C(O)(c3ccccc3)c3ccccc3)CC2)cc1 (centres undefined) , which is 1.03

The recorded growth AUC normalised to DMSO control for entry "Cn1cnc2c1c(=O)[nH]c(=O)n2C" equals 1.03

For this compound ( CCC1NC(=O)c2cc(S(N)(=O)=O)c(Cl)cc2N1 (centres undefined) ), measured growth AUC normalised to DMSO control is 1.01

Given item CCN(CC)CCCC(C)Nc1c2ccc(Cl)cc2nc2ccc(OC)cc12 (centres undefined) [Quinacrine dihydrochloride hydrate] , the value recorded as its growth AUC normalised to DMSO control is 0.996

Field growth AUC normalised to DMSO control (entry CN(C)CCN1C(=O)c2ccccc2N(C)c2ccccc21 [Dibenzepine hydrochloride] ) reads 0.977
